Attribution: patent US6521634B2

Molecular target: BDZ binding site of the GABAA receptor
Test: competitive binding assay with [3H]-flunitrazepam
Conditions: [3H]-flunitrazepam competition; read-out: IC50, inhibition of binding of [3H]-flunitrazepam to the BDZ binding site of the GABAA receptor
parameterMeasured: IC50

> print(dat)
                                   compound  result
1  COc1cc2c(cc1OC)C1Cc3ccc(OC)c(OC)c3CN1CC2 (racemic)  836 µM
